Assay: Inhibition of alpha-glucosidase (unknown origin) using PNPG as substrate incubated for 10 mins prior to substrate addition measured every 30 secs for 5 mins relative to control
Parameters: species or system Homo sapiens
pIC50: −log10 of the molar value.

structure | pIC50
CC(C)=CC[n+]1cccc(C(=O)O[C@H]2CC[C@]3(C)[C@H]4CC=C5[C@@H]6[C@@H](C)[C@H](C)CC[C@]6(C)CC[C@@]5(C)[C@]4(C)CC[C@H]3C2(C)C)c1.[Br-] | 5.30
